Each entry below lists one item and its recorded pIC50 value.
- Measurement target: ecNadD (Escherichia coli (strain K12))
- Assay info: biochemical
- Measurement parameters: IC50 ecNadD
pIC50: −log10 of the molar value.
Test readout: pIC50

compound="Nc1c(C(=O)Nc2ccc(Cl)cc2Cl)sc2nc(-c3cccs3)ccc12 [03_11]" relation_operator== recorded_number=4.52
compound="Cc1ccccc1N/C=C1\\C(=O)Nc2ccccc21 [15_31]" relation_operator== recorded_number=3.93
compound="O=C(CCC(=O)Nc1cccc(Br)c1)N/N=C/c1c2ccccc2cc2ccccc12 [01_01]" relation_operator== recorded_number=5.22
compound="CCc1ccccc1N/C=C1\\C(=O)Nc2ccccc21 [15_27]" relation_operator=< recorded_number=3.70
compound="O=C(CCC(=O)Nc1ccc(I)cc1)N/N=C/c1c2ccccc2cc2ccccc12 [compound 001]" relation_operator== recorded_number=4.82

====

Each entry below lists one item and its recorded […]. coli value.
- Measurement target: ecNadD (Escherichia coli (strain K12), UniProt P0A752)
- Assay info: biochemical
- Type: biochemical
Test readout: […]. coli (%)

compound="O=C(CSc1nnc(-c2ccncc2)[nH]1)Nc1ccccc1Cl [compound 100]" recorded_number=9
compound="CN1C(=O)S/C(=C\\c2ccc(OCC(=O)O)c(I)c2)C1=O [compound 069]" recorded_number=13
compound="O=C(O)c1ccccc1S(=O)(=O)c1ccccc1C(=O)O [compound 130]" recorded_number=7
compound="Cc1ccc(C2C(C#N)=C(N)Oc3ncnc(O)c32)cc1 (centres unmarked) [compound 259]" recorded_number=0
compound="CC(=O)NS(=O)(=O)c1ccc(/N=C2\\C(=O)Nc3ccccc32)cc1 [compound 300]" recorded_number=0
compound="CSc1ccc(/C=N/c2ccc(S(N)(=O)=O)cc2)cc1 [compound 076]" recorded_number=12
compound="O=[N+]([O-])c1ccc(/C=N\\NS(=O)(=O)c2ccc(Cl)cc2)o1 [compound 057]" recorded_number=15
compound="CC(=O)NC(=S)Nc1ccc(Cl)c(Cl)c1 [compound 244]" recorded_number=0
compound="NS(=O)(=O)c1ccc(/N=C/c2ccc(Br)cc2)cc1 [compound 214]" recorded_number=0
compound="O=C(NNC(=O)c1ccccc1C(=O)O)c1ccc(Cl)cc1 [compound 195]" recorded_number=1
compound="CCS(=O)(=O)CCSc1nc2ccccc2o1 [compound 094]" recorded_number=10
compound="O=C(O)CCC(=O)OC/C=C/c1ccccc1 [compound 247]" recorded_number=0
compound="Cc1cccc(C(=O)NNC(=O)/C=C\\C(=O)O)c1 [compound 120]" recorded_number=8
compound="O=C(O)c1ccc(-n2cccn2)cc1 [compound 141]" recorded_number=6
compound="NS(=O)(=O)c1ccc(N/C=C2\\C(=O)Oc3ccccc3C2=O)cc1 [compound 218]" recorded_number=0
compound="O=C(/C=C/c1ccoc1)c1ccccc1O [compound 151]" recorded_number=5
compound="O=C(Cn1cnc2ccccc2c1=O)Nc1cccc(C(=O)O)c1 [compound 280]" recorded_number=0
compound="Nc1nnc(CCSc2cc(Cl)ccc2Cl)s1 [compound 018]" recorded_number=27
compound="O=C(O)c1cc(/N=C/c2ccc3c(c2)OCO3)ccc1O [compound 119]" recorded_number=8
compound="NS(=O)(=O)c1ccc(CCNC(=S)Nc2ccc(S(N)(=O)=O)cc2)cc1 [compound 095]" recorded_number=10
compound="O=C(Nc1ccc(Cl)cn1)c1cccnc1 [compound 279]" recorded_number=0
compound="O=C(O)c1ccc(CSCc2ccccc2)o1 [compound 270]" recorded_number=0
compound="CCS(=O)(=O)n1nc(-c2ccc(OC)cc2)nc1N [compound 149]" recorded_number=5
compound="Cc1nc(N)nc(O)c1Oc1ccccc1 [compound 102]" recorded_number=9
compound="O=C(O)c1ccc(/C=N/NC(=O)c2cc3cc(Br)ccc3o2)cc1 [compound 172]" recorded_number=3
compound="NS(=O)(=O)c1ccc(NC(=O)CSc2ccc3ccccc3n2)cc1 [compound 073]" recorded_number=12
compound="O=C(O)[C@@H]1CSC(c2ccc(Cl)cc2Cl)N1 (some centres unmarked) [compound 041]" recorded_number=19
compound="Cc1ccc(C(=O)Nc2ccccc2)cc1S(=O)(=O)Nc1ccccn1 [compound 071]" recorded_number=12
compound="O=C(CCS(=O)(=O)c1ccc(Br)s1)NCc1cccs1 [compound 285]" recorded_number=0

====

Each entry below lists one item and its recorded […]. coli value.
- Measurement target: ecNadD (Escherichia coli (strain K12))
- Assay info: biochemical
- Format: biochemical
Test readout: […]. coli (%)

smiles_notation=O=C(O)c1ccccc1C(=O)c1cccs1 recorded_number=5
smiles_notation=COc1ccc(N(CC(=O)O)S(=O)(=O)c2ccc(C)cc2)cc1Cl recorded_number=1
smiles_notation=Nc1ccc(/C=C/c2cccc(C(=O)O)n2)cc1 recorded_number=15
smiles_notation=O=S(=O)(N/N=C/c1cccc(OC2CSC2)c1)c1ccccc1 recorded_number=0
smiles_notation=c1ccc2[nH]c(SCc3cn4ccsc4n3)nc2c1 recorded_number=6

====

Each entry below lists one item and its recorded […]. anthracis value.
- Measurement target: baNadD (Bacillus anthracis)
- Sequence (C3L5T6 whole entry, looked up): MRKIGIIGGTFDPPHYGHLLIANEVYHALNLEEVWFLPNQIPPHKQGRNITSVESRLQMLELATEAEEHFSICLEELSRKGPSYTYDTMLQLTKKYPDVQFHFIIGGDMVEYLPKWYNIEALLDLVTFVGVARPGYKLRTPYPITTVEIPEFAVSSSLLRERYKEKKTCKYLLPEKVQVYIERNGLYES
- Assay info: biochemical
- Format: biochemical
Test readout: […]. anthracis (%)

compound="CCc1c(O)nc(SC2CC(=O)N(c3ccccc3)C2=O)nc1O (centres unmarked)" test_readout="[…]. anthracis" uom=% recorded_number=0
compound=Cn1c(=O)n(C)c2cc(S(=O)(=O)NCCC(=O)O)ccc21 test_readout="[…]. anthracis" uom=% recorded_number=1
compound=N/N=C/c1c(Cl)cccc1Cl test_readout="[…]. anthracis" uom=% recorded_number=5
compound="CC1=C(C)CC(C(=O)Nc2ccc(I)cc2)C(C(=O)O)C1 (centres unmarked)" test_readout="[…]. anthracis" uom=% recorded_number=65
compound=Cc1cccc(C(=O)NNC(=O)/C=C\C(=O)O)c1 test_readout="[…]. anthracis" uom=% recorded_number=0

====

- Measurement target: ecNadD (Escherichia coli (strain K12), UniProt P0A752)
- Assay info: biochemical
- Type: biochemical
Label Satisfied when […]. coli < 10%; otherwise Not satisfied.

molecule="O=C(O)c1ccc(-n2ncc(Cl)c(Cl)c2=O)cc1 [compound 217]" label=Satisfied
molecule="Cc1nnc(SCC(=O)Nc2ccc(Cl)cn2)[nH]c1=O [compound 146]" label=Satisfied
molecule="Oc1ccc(Br)cc1/C=N/Nc1nnn[nH]1 [compound 060]" label="Not satisfied"
molecule="Nc1nnc(SCC(=O)Nc2nccs2)n1-c1ccccc1 [compound 058]" label="Not satisfied"
molecule="O=C(O)c1cccc(CSc2ncccn2)c1 [compound 180]" label=Satisfied
molecule="O=C(O)CCSCCc1ccncc1 [compound 193]" label=Satisfied
molecule="O=C(CCN1C(=O)c2ccccc2C1=O)NCc1ccncc1 [compound 302]" label=Satisfied
molecule="CCOC(=O)c1ccc(N/C=C2\\C(=O)Oc3ccccc3C2=O)cc1 [compound 220]" label=Satisfied
molecule="O=C(O)CCC(=O)Nc1ccc(-c2nnc(-c3ccco3)o2)cc1 [compound 239]" label=Satisfied
molecule="O=C(O)c1ccccc1NC1=NS(=O)(=O)c2ccccc21 [compound 132]" label=Satisfied
molecule="O=C1C/C(=C/NCCc2ccc(O)cc2)C(=O)N1 [compound 068]" label="Not satisfied"
molecule="Nc1ccc(NC(=O)c2cc(Cl)ccc2O)c(Cl)c1 [compound 043]" label="Not satisfied"
molecule="CCCn1cc(C(CC(=O)O)C(=O)O)c2ccccc21 (centres unmarked) [compound 110]" label=Satisfied
molecule="Cc1nnc(SCC(=O)Nc2ccc(Cl)cn2)s1 [compound 088]" label="Not satisfied"
molecule="Cc1ccc(OCC(=O)Nc2nnc[nH]2)c(Br)c1 [compound 046]" label="Not satisfied"
molecule="Nc1nnnn1/N=C/c1ccccc1 [compound 278]" label=Satisfied
molecule="NS(=O)(=O)c1cc(C(=O)OCC(=O)c2ccccc2)ccc1Cl [compound 269]" label=Satisfied
molecule="CC1=C(C)CC(C(=O)Nc2ccc(I)cc2)C(C(=O)O)C1 (centres unmarked) [compound 144]" label=Satisfied
molecule="N#CCc1ccc(NC(=O)/C=C/c2ccc([N+](=O)[O-])o2)cc1 [compound 233]" label=Satisfied
molecule="CSc1cccc(NS(=O)(=O)c2ccc(F)cc2)c1 [compound 208]" label=Satisfied
molecule="CC(=O)c1ccc(NS(=O)(=O)c2ccc(N)cc2)cc1 [compound 283]" label=Satisfied
molecule="O=C(O)CCC(C(=O)O)N1C(=O)c2cc(Cl)c(Cl)cc2C1=O (centres unmarked) [compound 029]" label="Not satisfied"
molecule="O=C(O)c1cc(C(=O)O)c2cc(Oc3ccc4nc(C(=O)O)cc(C(=O)O)c4c3)ccc2n1 [compound 067]" label="Not satisfied"
molecule="NS(=O)(=O)c1ccc2nc(NC(=O)c3ccncc3)sc2c1 [compound 059]" label="Not satisfied"

====

Each entry below lists one item and its recorded MIC50 value.
- Tested on: E. coli K-12 BW25113 (ΔnadA)
- Assay info: microbe, parasite or virus in culture
- Format: cell-based, Escherichia coli
- Measurement parameters: Escherichia coli, BW25113, read-out: MIC50 E. coli
Test readout: MIC50

smiles_notation=O=C(CCCC(=O)Nc1ccc(Br)cc1)N/N=C/c1c2ccccc2cc2ccccc12 result="> 80 µM"
smiles_notation=COC(=O)c1ccc(N/C=C2\C(=O)Nc3ccccc32)cc1 result="< 100 µM"
smiles_notation=O=C(CCC(=O)Nc1cccc(Cl)c1)N/N=C/c1c2ccccc2cc2ccccc12 result="> 80 µM"
